System: HL-60(TB) leukemia
methodNotes: NCI-60 one-dose screen, 48 h (100 = growth as untreated, 0 = no growth, -100 = all killed)
appliedConditions: 10 µM unless noted
The panel holds about 83,000 compounds, 20% with a hit somewhere; the sample as a whole holds those more often.
Threshold 50%: growth strictly smaller gives Y, otherwise N.

> print(dat)
                                    compound  assignedclass
 1  COc1ccc(-c2cc(-c3cc(C(C)C)c(O)cc3C)nn2-c2ccc(S(N)(=O)=O)cc2)cc1              Y
 2  Nc1ccc(-c2ccc3ncnc(N4CCc5cc(F)c(Cl)cc54)c3c2)cn1              Y
 3  COc1ccc([C@H]2C(C(=O)c3ccc(Cl)cc3)C3(N[C@@H]2c2ccccc2)C(=O)Nc2ccc(Cl)cc23)cc1 (some centres undefined)              Y
 4  Cc1ccc(-n2c(-c3cc4ccccc4nc3Cl)noc2=O)cc1              N
 5  O=C1NC(=NC23CC4CC(CC(C4)C2)C3)N/C1=C\c1ccc2ncccc2n1              Y
 6  N/C(=N\N=C\c1ccc([N+](=O)[O-])cc1)c1c(N)nc(=S)[nH]c1-c1ccc(Cl)cc1Cl              N
 7  COc1cc(C2CC(c3ccccc3)=Nc3c(N)nc(N)nc3N2)ccc1Oc1nc(NCCO)nc(N2CCOCC2)n1 (centres undefined)              N
 8  Cc1ccc(-c2cc(C(=O)N=Nc3c(O)[nH]c4ccc(Br)cc34)c3ccccc3n2)cc1              Y
 9  CC(C)Sc1nc(NCCc2c[nH]c3ccccc23)c(C#N)c(-c2ccccc2)n1              Y
10     S=c1c2ccccc2nc2n1CCc1c-2[nH]c2ccccc12              N
11  CCC(C)(C)c1ccc(OCCCCN2CCN(c3ccncc3)CC2)cc1              Y
12  O=C(N/N=C/c1ccc(-c2cccc([N+](=O)[O-])c2)o1)c1[nH]c2ccc(Br)cc2c1-c1ccccc1              Y
13  COc1cc(-c2cc(-c3cccc(OCC(=O)O)c3)[nH]c(=O)c2C#N)cc(OC)c1OC              N
14  COc1cc(/C=C/C(=O)c2cnn(-c3cc(=O)[nH]c4ccc(Cl)cc34)c2C)cc(OC)c1OC              Y
15  COc1sc(/C=N/NC(=O)c2[nH]c3ccc(Br)cc3c2-c2ccccc2)cc1Br              Y
16  CSc1ccccc1NC(=O)c1ccc2nnn(/C(C#N)=C/c3ccccn3)c2c1              Y
17  Cc1ccc(C(=O)CSc2nc3ccc(C)cc3c(=O)n2-c2ccc(F)cc2)cc1              N
